# System: SORBI (Andropogon sorghum, common sorgum)
# Test method notes: Weed control test, foliage treatment (Test Example 1, Table 7)
# Format: in vivo
# Recorded conditions: Sorghum bicolor, foliar, 0.025 kg/ha, read-out: Plant damage (herbicidal activity), visually evaluated, SORBI
Attribute measured: pest or weed control at 25 g/ha

Structure | Result
C[C@@H](Oc1ccc(Oc2nc3ccc(Cl)cc3o2)cc1)C(=O)N(C)c1nc2ccccc2s1 | 10%
Cc1ccc2nc(N(C)C(=O)[C@@H](C)Oc3ccc(Oc4ccc(C#N)cc4F)cc3)sc2c1 | 10%
C[C@@H](Oc1ccc(Oc2ccc(C#N)cc2F)cc1)C(=O)Nc1cnccn1 | 20%
C[C@@H](Oc1ccc(C(F)=C(c2ccccc2)C(F)(F)F)cc1)C(=O)Nc1ccccc1F | 0%
COc1ccc2nc(N(C)C(=O)[C@@H](C)Oc3ccc(Oc4nc5ccc(Cl)cc5o4)cc3)sc2c1 | 10%
C[C@@H](Oc1ccc(Oc2ccc(C#N)cc2F)cc1)C(=O)Nc1nc2ccc(Cl)cc2s1 | 0%
COc1ccc2nc(NC(=O)[C@@H](C)Oc3ccc(Oc4nc5ccc(Cl)cc5o4)cc3)sc2c1 | 30%
C[C@@H](Oc1ccc(Oc2ccc(C#N)cc2F)cc1)C(=O)Nc1nccs1 | 0%
Cc1cc(NC(=O)[C@@H](C)Oc2ccc(Oc3ccc(C#N)cc3F)cc2)n(C)n1 | 0%
C[C@@H](Oc1ccc(Oc2nc3ccc(Cl)cc3o2)cc1)C(=O)Nc1nc2ccccc2s1 | 25%
C[C@@H](Oc1ccc(Oc2ccc(C#N)cc2F)cc1)C(=O)Nc1nc2ccc(F)cc2s1 | 0%
